These measurements were taken from patent US8809347B2.

Target: Axl (Homo sapiens)
Construct: Cells: Hela cells; endogenous in cells
Assay: Phospho-Akt in-cell Western assay (inhibition of Axl activity)
Conditions: Hela cells; 1 hr pre-treatment; stimulation by Axl-antibody cross-linking; phospho-Akt chemiluminescence normalized to relative cell number
Description: The compounds of the invention were tested in the following assay for their ability to inhibit Axl activity. Phospho-Akt in-Cell Western Assay […]
pIC50: −log10 of the molar value.
# pIC50 listing for each entry below

Use the examples below as a reference point.
> print(dat)
                                   compound       system.tested  measured.parameter  value.observed
1  Nc1nc(Nc2ccc3c(c2)CCCN(C2CCCC2)CC3)nn1-c1nc2ccccc2s1 [Compound 32]  Axl (Homo sapiens)               pIC50    5.00 to 6.00
2  Cc1csc2c(-n3nc(Nc4ccc5c(c4)CC(N4CCCC4)CCCC5)nc3N)nc(Cl)nc12 (stereo not shown) [Compound 29]  Axl (Homo sapiens)               pIC50          > 6.00
3  Nc1nc(Nc2ccc(N3CCN(C4CC5CCC4C5)CC3)cc2)nn1-c1ncnc2c1CCCCCC2 (stereo not shown) [Compound 24]  Axl (Homo sapiens)               pIC50          > 6.00

Then this compound:
## Task Requested field: pIC50. Item: Nc1nc(Nc2ccc(N3CCN(C4CC5CCC4C5)CC3)cc2)nn1-c1ncc2c(n1)CCCCCC2 (stereo not shown) [Compound 3]
## Result > 6.00

* * *

The entries below come with measured IC50 values attached.
target: Axl (Homo sapiens, UniProt P30530); construct: Cells: Hela cells; endogenous in cells; host or cells: HeLa cells; experiment: Phospho-Akt in-cell Western assay (inhibition of Axl activity); type: cell-based; conditions: Hela cells; 1 hr pre-treatment; stimulation by Axl-antibody cross-linking; phospho-Akt chemiluminescence normalized to relative cell number
Sequence (P30530 26-894): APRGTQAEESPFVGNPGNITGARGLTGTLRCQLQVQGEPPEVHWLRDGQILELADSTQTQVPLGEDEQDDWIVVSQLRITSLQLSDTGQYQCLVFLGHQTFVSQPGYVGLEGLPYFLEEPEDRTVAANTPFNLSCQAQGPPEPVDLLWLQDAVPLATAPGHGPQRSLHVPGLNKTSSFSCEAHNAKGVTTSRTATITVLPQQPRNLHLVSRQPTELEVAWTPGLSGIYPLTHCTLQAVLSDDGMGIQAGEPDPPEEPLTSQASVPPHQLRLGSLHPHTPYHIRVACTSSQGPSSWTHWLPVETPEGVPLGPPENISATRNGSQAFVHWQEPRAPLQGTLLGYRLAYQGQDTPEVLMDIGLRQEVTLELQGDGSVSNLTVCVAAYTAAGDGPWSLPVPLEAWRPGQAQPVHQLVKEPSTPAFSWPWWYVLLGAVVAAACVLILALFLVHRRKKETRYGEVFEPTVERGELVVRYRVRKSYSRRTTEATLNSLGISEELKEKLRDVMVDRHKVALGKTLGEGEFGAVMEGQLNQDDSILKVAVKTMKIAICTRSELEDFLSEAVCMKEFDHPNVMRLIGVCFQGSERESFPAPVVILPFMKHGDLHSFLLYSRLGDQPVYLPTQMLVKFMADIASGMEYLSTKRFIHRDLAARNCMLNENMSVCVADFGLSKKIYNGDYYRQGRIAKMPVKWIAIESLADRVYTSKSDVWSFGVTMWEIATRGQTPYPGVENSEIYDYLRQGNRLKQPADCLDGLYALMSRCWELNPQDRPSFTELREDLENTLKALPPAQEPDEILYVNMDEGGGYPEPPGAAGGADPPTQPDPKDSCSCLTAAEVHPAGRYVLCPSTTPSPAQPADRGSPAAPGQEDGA

Before answering, review these 3 worked examples.
> print(dat)
                                   molecule  measured.parameter  value.observed
1  Cc1csc2c(-n3nc(Nc4ccc5c(c4)CCCN(C4CC6CCC4C6)CC5)nc3N)ncnc12 (stereo not shown)                IC50       < 1000 nM
2  Nc1nc(Nc2ccc(N3CCC(CN4CCCC4)CC3)nc2)nn1-c1ncnc2c1CCCCCC2                IC50       < 1000 nM
3  Cc1csc2c(-n3nc(Nc4cnc5c(c4)CCC(N4CCN(C)CC4)CCC5)nc3N)ncnc12 (stereo not shown)                IC50       < 1000 nM

## Task Consider the molecule shown here: `CCOC(=O)N1CCN(c2ccc(Nc3nc(N)n(-c4ncc5c(n4)CCCCCC5)n3)cc2F)CC1` What is its recorded IC50?
## Result 1000 to 10000 nM

* * *

target: Axl (Homo sapiens, UniProt P30530); construct: Cells: Hela cells; endogenous in cells; experiment: Phospho-Akt in-cell Western assay (inhibition of Axl activity); settings: Hela cells; 1 hr pre-treatment; stimulation by Axl-antibody cross-linking; phospho-Akt chemiluminescence normalized to relative cell number
Recorded IC50 by entry

Solved entries (count: 2):
> print(dat)
                                   compound    value.observed
1  Nc1nc(Nc2ccc(OCCN3CCCC3)cc2)nn1-c1ncc2c(n1)CCCCCC2 [Compound 1]         < 1000 nM
2  Nc1nc(Nc2ccc(N3CCC(N4CCCC4)CC3)c(F)c2)nn1-c1cc(-c2ccccc2)c2c(n1)CCCCCC2 [Compound 45]  1000 to 10000 nM

## Task What does the record list as IC50 for Nc1nc(Nc2ccc(N3CCC(N4CCOCC4)CC3)c(F)c2)nn1-c1ncc2c(n1)CCCCCC2 [Compound 25] ?
## Result 1000 to 10000 nM

## Task Returns the measured IC50 for the input compound. Input: CN1CCc2ccc(Nc3nc(N)n(-c4ncc5c(n4)CCCCCC5)n3)cc2C1 [Compound 12]
## Result > 20000 nM

## Task Form field: reported IC50 of Cc1csc2c(-n3nc(Nc4cnc5c(c4)CCC(=O)CCC5)nc3N)nc(Cl)nc12 [Compound 34]
## Result < 1000 nM

## Task Fill blank: measured IC50 of the compound Nc1nc(Nc2ccc3c(c2)CCN(C2CCCC2)CCC3)nn1-c1ccc(C(F)(F)F)cn1 [Compound 30] is ____.
## Result < 1000 nM
